Data provenance: patent US11566007B2

# assayTarget: NRAS G12C (Homo sapiens (Human), UniProt P01111+P62937, G12C)
# Sequence (P01111 whole entry G12C): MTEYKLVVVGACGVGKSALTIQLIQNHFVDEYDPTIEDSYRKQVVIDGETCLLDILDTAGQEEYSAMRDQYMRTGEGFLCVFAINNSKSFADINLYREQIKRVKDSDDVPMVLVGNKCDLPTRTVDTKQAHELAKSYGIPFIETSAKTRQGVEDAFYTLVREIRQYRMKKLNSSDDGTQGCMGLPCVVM
# Sequence (P62937 whole entry): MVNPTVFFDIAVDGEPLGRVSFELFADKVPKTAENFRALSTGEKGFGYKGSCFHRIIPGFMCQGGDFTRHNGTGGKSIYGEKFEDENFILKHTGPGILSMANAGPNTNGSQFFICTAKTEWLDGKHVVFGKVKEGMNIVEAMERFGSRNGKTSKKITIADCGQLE
# experimentNotes: Ras-Raf (BRAF RBD) disruption / FRET / MOA assay, NRAS G12C
# Assay type: biochemical
# runParameters: read-out: IC50* NRAS G12C FRET data
Reported IC50 values for the following molecules.

Would you please look over these solved cases?
molecule | IC50
C=CC(=O)N1CC[C@H](C(=O)Nc2ccccc2C(=O)N[C@H]2Cc3cc(O)cc(c3)-c3ccc4c(c3)c(c(-c3cnccc3COC)n4CC)CC(C)(C)COC(=O)[C@@H]3CCCN(N3)C2=O)C1 | 1000 to 10000 nM
C=CC(=O)N1CC[C@H](C(=O)N(C)[C@H](C(=O)N[C@H]2Cc3cc(O)cc(c3)-c3ccc4c(c3)c(c(-c3cnn5c3[C@@H](OC)CCC5)n4CC)CC(C)(C)COC(=O)[C@@H]3CCCN(N3)C2=O)C(C)C)C1 | < 10 nM
C=CC(=O)N1CC[C@@H]2[C@H]1CN2C(=O)N(C)[C@H](C(=O)N[C@H]1Cc2nc(cs2)-c2ccc3c(c2)c(c(-c2cccnc2[C@H](C)OC)n3CC)CC(C)(C)COC(=O)[C@@H]2CCCN(N2)C1=O)C(C)C (atropisomer, axis not shown) | 100 to 1000 nM

**Q:** Please give the measured IC50 for this molecule: CCn1c(-c2cccnc2[C@H](C)OC)c2c3cc(ccc31)-c1csc(n1)C[C@H](NC(=O)C[C@@H](C)OC1CN(C(=O)C#CC(C)(C)N(C)C)C1)C(=O)N1CCC[C@H](N1)C(=O)OCC(C)(C)C2 (atropisomer, axis not shown)
**A:** < 10 nM
